Assay: Proposed mechanism(s) of liver damage. [column 'MEC' in source]
Conditions: human
measured_quantity: Hepatotoxicity (mechanism)

Some solved entries appear below for comparison.
CCC[N+]12[C@H](O)[C@@H](CC)[C@@H]3C[C@H]1[C@@H]1N(C)c4ccccc4[C@]14C[C@H]2C3[C@H]4O (stereo partly drawn) = Allergic
Cc1ncc([N+](=O)[O-])n1CCO = Dose-dependant
O=C[C@H](O)[C@@H](O)[C@H](O)[C@H](O)CO[C@H]1O[C@H](CO[C@H]2O[C@H](CO)[C@@H](O)[C@H](O)[C@H]2O)[C@@H](O)[C@H](O)[C@H]1O = Dose-dependant
C[C@@H]1[C@H](O)[C@@H](C)/C=C/C=C/C=C/C=C/C=C/C=C/C=C/[C@H](O[C@@H]2O[C@H](C)[C@@H](O)[C@H](N)[C@@H]2O)C[C@@H]2O[C@](O)(C[C@@H](O)C[C@@H](O)[C@H](O)CC[C@@H](O)C[C@@H](O)CC(=O)O[C@H]1C)C[C@H](O)[C@H]2C(=O)O = Dose-dependant
CO[C@H]1/C=C/O[C@@]2(C)Oc3c(C)c(O)c4c(O)c(cc(O)c4c3C2=O)NC(=O)/C(C)=C\C=C\[C@H](C)[C@H](O)[C@@H](C)[C@@H](O)[C@@H](C)[C@H](OC(C)=O)[C@@H]1C = Allergic

[in] Endpoint output: Hepatotoxicity (mechanism) of CC(S)C(=O)NCC(=O)O (stereo not drawn) . Value?
[out] Allergic

[in] Endpoint output: Hepatotoxicity (mechanism) of CN(Cc1cnc2nc(N)nc(N)c2n1)c1ccc(C(=O)N[C@@H](CCC(=O)O)C(=O)O)cc1 [METHOTREXATE] . Value?
[out] Dose-dependant

[in] Endpoint output: Hepatotoxicity (mechanism) of `C=C[C@H]1C[N@@]2CC[C@H]1C[C@@H]2[C@@H](O)c1ccnc2ccc(OC)cc12` . Value?
[out] Allergic

[in] Endpoint output: Hepatotoxicity (mechanism) of `CC(C)c1nc(CN(C)C(=O)N[C@H](C(=O)N[C@@H](Cc2ccccc2)C[C@H](O)[C@H](Cc2ccccc2)NC(=O)OCc2cncs2)C(C)C)cs1` . Value?
[out] Dose-dependant

[in] Endpoint output: Hepatotoxicity (mechanism) of `C[C@H](CCC(=O)O)[C@H]1CC[C@H]2[C@@H]3[C@H](O)C[C@@H]4C[C@H](O)CC[C@]4(C)[C@H]3CC[C@]12C` . Value?
[out] Dose-dependant

[in] Endpoint output: Hepatotoxicity (mechanism) of `C[C@H](CCc1ccccc1)NC[C@H](O)c1ccc(O)c(C(N)=O)c1` . Value?
[out] Allergic
